- System: NF54^CTL parasites
- test.summary: P. falciparum proliferation assay (72 h, flow cytometry, SYBR Green I/MitoTracker)
- Format: cell-based, Plasmodium falciparum
- reported.conditions: Plasmodium falciparum, NF54, NF54CTL; single experiments; source data of Fig. 2 (nM in Supplementary Table 5); read-out: IC50 values

{"molecule": "N#Cc1cc(NC(=O)[C@H]2c3ccccc3C(=O)N(CC(F)(F)F)[C@@H]2c2cccnc2)ccc1F [(+)-SJ733]", "IC50 [nM]": 89.3}

---

- Tested on: Dd2-Polδ-PfATP4^G358S parasites
- test.summary: P. falciparum proliferation assay (72 h, fluorescent DNA-intercalating dye)
- Format: cell-based, Plasmodium falciparum
- reported.conditions: Dd2-Polδ-PfATP4G358S; Supplementary Table 1, Set 2; read-out: Mean IC50 value ± SEM for growth inhibition
pIC50: −log10 of the molar value.

{"query.smiles": "Oc1ccc(C(=C(Cl)Cl)c2ccc(O)cc2)cc1", "measured.on": "Dd2-Polδ-PfATP4^G358S parasites", "pIC50": 5.31}

---

- Tested on: Dd2-PfATP4^T418N,P990R parasites
- test.summary: P. falciparum proliferation assay (72 h, fluorescent DNA-intercalating dye)
- Type: cell-based, Plasmodium falciparum
- reported.conditions: Dd2-PfATP4T418N,P990R; single experiments; source data of Fig. 2 (nM in Supplementary Table 1); read-out: IC50 values
- Protocol: For experiments with all other parasites, the effects of compounds of interest on parasite proliferation was measured in 96-well plates containing serial dilutions of the compounds in culture medium, with a fluorescent DNA-intercalating dye used to detect surviving parasites. The assays were initiated with erythrocytes infected with predominantly ring-stage parasites, and the starting parasitaemia and haematocrit were both 1%.

{"molecule": "C[C@H]1Cc2c([nH]c3cc(Cl)c(F)cc23)[C@@]2(N1)C(=O)Nc1ccc(Cl)cc12 [Cipargamin]", "IC50": "7.9 nM"}

---

- Test system: NF54^G358S-2 parasites
- test.summary: P. falciparum proliferation assay (72 h, flow cytometry, SYBR Green I/MitoTracker)
- Type: cell-based, Plasmodium falciparum
- reported.conditions: Plasmodium falciparum, NF54, NF54G358S-2; 10% human serum; read-out: IC50 ± SEM

{"compound": "N#Cc1cc(NC(=O)[C@H]2c3ccccc3C(=O)N(CC(F)(F)F)[C@@H]2c2cccnc2)ccc1F [(+)-SJ733]", "measured.on": "NF54^G358S-2 parasites", "IC50 (µM)": 13}
{"compound": "C[C@H]1[C@@H](O)O[C@@H]2O[C@@]3(C)CC[C@H]4[C@H](C)CC[C@@H]1[C@@]24OO3 [Dihydroartemisinin]", "measured.on": "NF54^G358S-2 parasites", "IC50 (µM)": 0.0009}

---

Below: a set of entries, each annotated with reported pIC50.
- Test system: NF54^CTL parasites
- test.summary: P. falciparum proliferation assay (72 h, flow cytometry, SYBR Green I/MitoTracker)
- Assay type: cell-based, Plasmodium falciparum
- reported.conditions: Plasmodium falciparum, NF54, NF54CTL; 10% human serum; read-out: IC50 ± SEM
- Procedure: For the NF54-based lines and Dd2-B2-PfATP4^G358S and its parent, assays were initiated with cultures containing predominantly ring-stage parasites with a parasitaemia of 0.3% and a haematocrit of 1%. […] Parasite survival was assessed by flow cytometry on an Intellicyt iQue3 (Essen Bioscience), with 1× SYBR Green I (Invitrogen) and 200 nM MitoTracker Deep Red FM (Invitrogen) used to stain the nucleus and the mitochondria in live parasites, respectively. […]
pIC50: −log10 of the molar value.
result.type: pIC50

{"compound": "COc1nc(C(C)C)ccc1-c1cnc2sc(N3CCC(O)(CN)CC3)nn12", "numeric.result": 8.92}
{"compound": "C[C@H]1Cc2c([nH]c3cc(Cl)c(F)cc23)[C@@]2(N1)C(=O)Nc1ccc(Cl)cc12", "numeric.result": 8.59}
{"compound": "C[C@H]1[C@@H](O)O[C@@H]2O[C@@]3(C)CC[C@H]4[C@H](C)CC[C@@H]1[C@@]24OO3 [Dihydroartemisinin]", "numeric.result": 9.05}

---

- Test system: Dd2-Polδ parasites
- test.summary: P. falciparum proliferation assay (72 h, fluorescent DNA-intercalating dye)
- Format: cell-based, Plasmodium falciparum
- reported.conditions: parental Dd2-Polδ, paired with MMV665949-selected Culture 1; n = 4; read-out: IC50
- Description: For experiments with all other parasites, the effects of compounds of interest on parasite proliferation was measured in 96-well plates containing serial dilutions of the compounds in culture medium, with a fluorescent DNA-intercalating dye used to detect surviving parasites. The assays were initiated with erythrocytes infected with predominantly ring-stage parasites, and the starting parasitaemia and haematocrit were both 1%.
pIC50: −log10 of the molar value.
result.type: pIC50

{"query.smiles": "Oc1ccc(C(=C(Cl)Cl)c2ccc(O)cc2)cc1", "result.type": "pIC50", "numeric.result": 5.37}

---

Known log10 of IC90 of a selection of compounds
- Tested on: NF54^G358S-1 parasites
- test.summary: P. falciparum proliferation assay (72 h, flow cytometry, SYBR Green I/MitoTracker)
- Assay type: cell-based, Plasmodium falciparum
- reported.conditions: Plasmodium falciparum, NF54, NF54G358S-1 parasites; individual experiments; read-out: IC90 values
result.type: log10 of IC90 (log10 of the value in nM)

{"compound": "COc1ccc2nc3cc(Cl)ccc3c(Nc3cc(CN4CCCC4)c(O)c(CN4CCCC4)c3)c2n1", "measured.on": "NF54^G358S-1 parasites", "log10 of IC90": 0.42}
{"compound": "C[C@H]1Cc2c([nH]c3cc(Cl)c(F)cc23)[C@@]2(N1)C(=O)Nc1ccc(Cl)cc12", "measured.on": "NF54^G358S-1 parasites", "log10 of IC90": 3.55}
{"compound": "CCCCN(CCCC)CC(O)c1cc(Cl)cc2c1-c1ccc(Cl)cc1/C2=C/c1ccc(Cl)cc1 (stereo not shown)", "measured.on": "NF54^G358S-1 parasites", "log10 of IC90": 2.26}
{"compound": "COc1nc(C(C)C)ccc1-c1cnc2sc(N3CCC(O)(CN)CC3)nn12", "measured.on": "NF54^G358S-1 parasites", "log10 of IC90": 0.27}
{"compound": "N#Cc1cc(NC(=O)[C@H]2c3ccccc3C(=O)N(CC(F)(F)F)[C@@H]2c2cccnc2)ccc1F [(+)-SJ733]", "measured.on": "NF54^G358S-1 parasites", "log10 of IC90": 4.43}
{"compound": "Clc1ccc2c(N3CCN(CCCN4CCN(c5ccnc6cc(Cl)ccc56)CC4)CC3)ccnc2c1", "measured.on": "NF54^G358S-1 parasites", "log10 of IC90": 1.53}
{"compound": "C[C@H]1[C@@H](O)O[C@@H]2O[C@@]3(C)CC[C@H]4[C@H](C)CC[C@@H]1[C@@]24OO3 [Dihydroartemisinin]", "measured.on": "NF54^G358S-1 parasites", "log10 of IC90": 0.43}

---

- Tested on: NF54^CTL parasites
- test.summary: P. falciparum proliferation assay (72 h, flow cytometry, SYBR Green I/MitoTracker)
- Assay type: cell-based, Plasmodium falciparum
- reported.conditions: Plasmodium falciparum, NF54, NF54CTL; MEAN; source data of Fig. 2; read-out: IC50 values, MEAN
result.type: IC50 (nM)

{"compound": "C[C@H]1Cc2c([nH]c3cc(Cl)c(F)cc23)[C@@]2(N1)C(=O)Nc1ccc(Cl)cc12", "measured.on": "NF54^CTL parasites", "result.type": "IC50", "numeric.result": 2.55}
{"compound": "N#Cc1cc(NC(=O)[C@H]2c3ccccc3C(=O)N(CC(F)(F)F)[C@@H]2c2cccnc2)ccc1F [(+)-SJ733]", "measured.on": "NF54^CTL parasites", "result.type": "IC50", "numeric.result": 84.8}

---

- System: NF54^CTL parasites
- test.summary: P. falciparum proliferation assay (72 h, flow cytometry, SYBR Green I/MitoTracker)
- Assay type: cell-based, Plasmodium falciparum
- reported.conditions: Plasmodium falciparum, NF54, NF54CTL parasites; mean of the experiments; read-out: IC50 values, MEAN
- Protocol: For the NF54-based lines and Dd2-B2-PfATP4^G358S and its parent, assays were initiated with cultures containing predominantly ring-stage parasites with a parasitaemia of 0.3% and a haematocrit of 1%. […] Parasite survival was assessed by flow cytometry on an Intellicyt iQue3 (Essen Bioscience), with 1× SYBR Green I (Invitrogen) and 200 nM MitoTracker Deep Red FM (Invitrogen) used to stain the nucleus and the mitochondria in live parasites, respectively. […]
pIC50: −log10 of the molar value.

{"molecule": "CCCCN(CCCC)CC(O)c1cc(Cl)cc2c1-c1ccc(Cl)cc1/C2=C/c1ccc(Cl)cc1 (centres unmarked)", "pIC50": 7.34}
{"molecule": "COc1nc(C(C)C)ccc1-c1cnc2sc(N3CCC(O)(CN)CC3)nn12", "pIC50": 8.93}
{"molecule": "CC1(C)c2nc(-c3ccc(F)cc3)c(Nc3ccc(F)cc3)n2CCN1C(=O)CN", "pIC50": 8.31}
{"molecule": "Clc1ccc2c(N3CCN(CCCN4CCN(c5ccnc6cc(Cl)ccc56)CC4)CC3)ccnc2c1", "pIC50": 7.76}
{"molecule": "COc1ccc2nc3cc(Cl)ccc3c(Nc3cc(CN4CCCC4)c(O)c(CN4CCCC4)c3)c2n1", "pIC50": 8.80}
